assay: in vivo; settings: female, Sprague-Dawley, rat, plasma (total), iv, 4 mg/kg
assay_endpoint: Cmax (ng/mL)
Numeric answer only, unit ng/mL assumed.

Query: Which Cmax reading was recorded for the molecule N#Cc1ccc(C(c2ccc(C#N)cc2)n2cncn2)cc1 ?
Response: 682

---

tested on: T98G; assay: Cytotoxicity of letrozole (MTT assay); assay type: cell-based; settings: Homo sapiens
assay_endpoint: IC50 (nM)
Numeric answer only, unit nM assumed.

Query: Which IC50 reading was recorded for the compound N#Cc1ccc(C(c2ccc(C#N)cc2)n2cncn2)cc1 [letrozole] ?
Response: 2810

---

test: in vivo; conditions: female, Sprague-Dawley, rat, plasma (total), iv, 8 mg/kg
assay_endpoint: AUC(0-t)
Please state the number and follow it with the unit.

Query: Which AUC(0-t) reading was recorded for the molecule N#Cc1ccc(C(c2ccc(C#N)cc2)n2cncn2)cc1 ?
Response: 8830 ng·h/mL

---

assay: Brain pharmacokinetics after oral administration; format: in vivo; details: rat; 4 mg/kg oral gavage, brain ECF
assay_endpoint: Tmax (h)
Numeric answer only, unit h assumed.

Query: Which Tmax reading was recorded for the compound N#Cc1ccc(C(c2ccc(C#N)cc2)n2cncn2)cc1 ?
Response: 5.75

---

biological target: aromatase activity in rat glioma cell line C6 (Rattus norvegicus, UniProt P22443); construct: endogenous in cells; experiment: Aromatase activity (estradiol EIA assay); details: testosterone 0.1 μM, 2 days incubation
Sequence (P22443 whole entry): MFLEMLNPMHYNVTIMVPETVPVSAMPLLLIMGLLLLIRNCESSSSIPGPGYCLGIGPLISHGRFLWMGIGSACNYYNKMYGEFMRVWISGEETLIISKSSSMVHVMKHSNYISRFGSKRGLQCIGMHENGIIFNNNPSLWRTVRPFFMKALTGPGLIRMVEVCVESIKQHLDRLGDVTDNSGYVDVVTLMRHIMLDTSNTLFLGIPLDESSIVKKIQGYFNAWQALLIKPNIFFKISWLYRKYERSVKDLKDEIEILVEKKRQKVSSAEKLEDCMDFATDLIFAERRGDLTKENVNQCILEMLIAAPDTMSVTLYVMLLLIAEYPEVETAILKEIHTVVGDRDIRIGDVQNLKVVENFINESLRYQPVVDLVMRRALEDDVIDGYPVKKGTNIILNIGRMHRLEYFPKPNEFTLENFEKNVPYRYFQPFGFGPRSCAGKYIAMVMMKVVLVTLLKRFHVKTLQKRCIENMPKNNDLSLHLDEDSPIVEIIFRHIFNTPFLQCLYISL
assay_endpoint: pIC50
// pIC50 is dimensionless: -log10 of concentration (M)

Query: Which pIC50 reading was recorded for the compound N#Cc1ccc(C(c2ccc(C#N)cc2)n2cncn2)cc1 [letrozole] ?
Response: 7.00

---

test: in vivo; details: female, Sprague-Dawley, rat, plasma (total), iv, 6 mg/kg
assay_endpoint: Cmax
Please state the number and follow it with the unit.

Query: Which Cmax reading was recorded for the compound N#Cc1ccc(C(c2ccc(C#N)cc2)n2cncn2)cc1 [letrozole] ?
Response: 916 ng/mL

---

test: in vivo; settings: female, Sprague-Dawley, rat, plasma (total), iv, 4 mg/kg
assay_endpoint: AUC(0-t)
Please state the number and follow it with the unit.

Query: Which AUC(0-t) reading was recorded for the compound N#Cc1ccc(C(c2ccc(C#N)cc2)n2cncn2)cc1 ?
Response: 4780 ng·h/mL

---

assay: in vivo; conditions: female, Sprague-Dawley, rat, brain ECF, iv, 12 mg/kg
assay_endpoint: Tmax

Query: Which Tmax reading was recorded for the molecule N#Cc1ccc(C(c2ccc(C#N)cc2)n2cncn2)cc1 [letrozole] ?
Response: 1.3 to 1.5 h

---

experiment: in vivo; details: female, Sprague-Dawley, rat, brain ECF / unbound plasma, iv, 4 mg/kg
assay_endpoint: Kp
Output spec: single numeric token, no unit.

Query: Which Kp reading was recorded for the molecule N#Cc1ccc(C(c2ccc(C#N)cc2)n2cncn2)cc1 ?
Response: 0.32

---

test: Tumoral versus normal brain ECF pharmacokinetics in C6 glioma-bearing rats; format: in vivo; settings: female, Sprague-Dawley, rat, tumor-free brain ECF (left striatum, control); 4 mg/kg IV bolus, tumor-free brain ECF, mean±SD
assay_endpoint: Cmax (ng/mL)
Numeric answer only, unit ng/mL assumed.

Query: Which Cmax reading was recorded for the compound N#Cc1ccc(C(c2ccc(C#N)cc2)n2cncn2)cc1 ?
Response: 183

---

Test: Tumoral versus normal brain ECF pharmacokinetics in C6 glioma-bearing rats
Type: in vivo, female Sprague-Dawley rats
Details: female, Sprague-Dawley, rat, tumor-free brain ECF (left striatum, control); 8 mg/kg IV bolus, tumor-free brain ECF, mean±SD
Experimental: Histology of rat brains was performed as outlined in Apparaju et al., Pharmacokinetics of gemcitabine in tumor and non-tumor extracellular fluid of brain: an in vivo assessment in rats employing intracerebral microdialysis, Cancer Chemother. Pharmacol. 61: 223-29 (2008).
assay_endpoint: Cmax (ng/mL)
Numeric answer only, unit ng/mL assumed.

Query: Which Cmax reading was recorded for the compound N#Cc1ccc(C(c2ccc(C#N)cc2)n2cncn2)cc1 ?
Response: 475

---

assay: Tumoral versus normal brain ECF pharmacokinetics in C6 glioma-bearing rats; type: in vivo, female Sprague-Dawley rats; conditions: female, Sprague-Dawley, rat, tumor-free brain ECF (left striatum, control); 4 mg/kg IV bolus, tumor-free brain ECF, mean±SD; read-out: AUC0-8 hr, Control
assay_endpoint: AUC(0-t)

Query: Which AUC(0-t) reading was recorded for the molecule N#Cc1ccc(C(c2ccc(C#N)cc2)n2cncn2)cc1 ?
Response: 803 ng·h/mL

---

assay: in vivo; conditions: female, Sprague-Dawley, rat, brain ECF / unbound plasma, iv, 12 mg/kg
assay_endpoint: Kp
Output spec: single numeric token, no unit.

Query: Which Kp reading was recorded for the molecule N#Cc1ccc(C(c2ccc(C#N)cc2)n2cncn2)cc1 ?
Response: 0.8

---

assay: in vivo; details: female, Sprague-Dawley, rat, brain ECF, iv, 4 mg/kg
assay_endpoint: Tmax (h)
Numeric answer only, unit h assumed.

Query: Which Tmax reading was recorded for the compound N#Cc1ccc(C(c2ccc(C#N)cc2)n2cncn2)cc1 ?
Response: 1.4

---

experiment: Brain pharmacokinetics after oral administration; format: in vivo; details: rat; 4 mg/kg oral gavage, brain ECF; read-out: AUC0-8 hr
assay_endpoint: AUC(0-t) (ng·h/mL)
Numeric answer only, unit ng·h/mL assumed.

Query: Which AUC(0-t) reading was recorded for the molecule N#Cc1ccc(C(c2ccc(C#N)cc2)n2cncn2)cc1 [letrozole] ?
Response: 976

---

assay: in vivo; settings: female, Sprague-Dawley, rat, brain ECF, iv, 4 mg/kg
assay_endpoint: AUC(0-t)

Query: Which AUC(0-t) reading was recorded for the compound N#Cc1ccc(C(c2ccc(C#N)cc2)n2cncn2)cc1 [letrozole] ?
Response: 583 ng·h/mL

---

assay: in vivo; details: female, Sprague-Dawley, rat, brain ECF / unbound plasma, iv, 8 mg/kg
assay_endpoint: Kp
Output spec: single numeric token, no unit.

Query: Which Kp reading was recorded for the compound N#Cc1ccc(C(c2ccc(C#N)cc2)n2cncn2)cc1 ?
Response: 0.77

---

assay: in vivo; details: female, Sprague-Dawley, rat, plasma (total), iv, 6 mg/kg
assay_endpoint: AUC(0-t) (ng·h/mL)
Numeric answer only, unit ng·h/mL assumed.

Query: Which AUC(0-t) reading was recorded for the compound N#Cc1ccc(C(c2ccc(C#N)cc2)n2cncn2)cc1 [letrozole] ?
Response: 5980

---

test: Tumoral versus normal brain ECF pharmacokinetics in C6 glioma-bearing rats; assay type: in vivo, female Sprague-Dawley rats; settings: female, Sprague-Dawley, rat, tumoral brain ECF (right striatum); 4 mg/kg IV bolus, tumoral brain ECF, mean±SD; read-out: AUC0-8 hr, Tumor
assay_endpoint: AUC(0-t) (ng·h/mL)
Numeric answer only, unit ng·h/mL assumed.

Query: Which AUC(0-t) reading was recorded for the compound N#Cc1ccc(C(c2ccc(C#N)cc2)n2cncn2)cc1 [letrozole] ?
Response: 1160

---

assay: in vivo; conditions: female, Sprague-Dawley, rat, brain ECF, iv, 4 mg/kg
assay_endpoint: Cmax (ng/mL)
Numeric answer only, unit ng/mL assumed.

Query: Which Cmax reading was recorded for the molecule N#Cc1ccc(C(c2ccc(C#N)cc2)n2cncn2)cc1 ?
Response: 132
